# assayed_target: CDK2/CyclinE1 (Homo sapiens, UniProt P24941)
# Construct: purchased SignalChem C29-18G
# assay_remarks: Assay for inhibition of CDK2/CyclinE1 (Caliper microfluidic kinase assay)
# Type: biochemical
pIC50: −log10 of the molar value.

# compound, assayed_target, pIC50
data = [
    ("CNC1CCN(C(=O)c2ccc(Nc3nccc(-c4ccn5ncc(C(C)C)c5c4)n3)cc2)C1 (stereo not shown)", "CDK2/CyclinE1 (Homo sapiens, UniProt P24941)", "> 8.00"),
]

====

# assayed_target: CDK2/CyclinE1 (Homo sapiens, UniProt P24941)
# Construct: purchased SignalChem C29-18G
# assay_remarks: Assay for inhibition of CDK2/CyclinE1 (Caliper microfluidic kinase assay)
# Type: biochemical
# assay_conditions: CDK2/CyclinE1, 100 μM ATP; read-out: CDK2 IC50
pIC50: −log10 of the molar value.
Reported pIC50 values follow for various compounds
measurement_kind: pIC50

# compound, recorded_result
rows = [
    ("CC(C)c1cnn2ccc(-c3ccnc(Nc4ccc(N5CCNCC5=O)cc4)n3)cc12", "> 8.00"),
    ("CC(C)c1cnn2ccc(-c3nc(Nc4ccc(N5CCC(N6CC(F)(F)C6)CC5=O)cn4)ncc3F)cc12 (stereo not drawn)", "7.00 to 8.00"),
    ("CC1(N)CCN(c2ccc(Nc3nccc(-c4ccn5ncc(C(C)(C)C)c5c4)n3)nc2)C(=O)C1 (stereo not drawn)", "> 8.00"),
    ("CC(C)n1cnc2c1CN(c1nc(Nc3ccc(N4CCNCC4=O)cc3)ncc1F)CC2", "> 8.00"),
    ("CC(C)c1cnn2ccc(-c3ccnc(Nc4ccc(N5CCC(N(C)C)CC5)cn4)n3)cc12 (single isomer, unassigned) [Synthetic Example 161]", "> 8.00"),
    ("CC(C)c1cnn2ccc(-c3nc(Nc4ccc(N5CCN(S(C)(=O)=O)CC5=O)cn4)ncc3F)cc12", "7.00 to 8.00"),
    ("COc1nc(-c2ccnc(Nc3ccc(N4CC5CC4CN5)cn3)n2)cc2c1ncn2C(C)C (stereo not drawn)", "< 6.00"),
    ("CC(C)c1cnn2c(C#N)cc(-c3ccnc(Nc4ccc(N5CCNCC5=O)cn4)n3)cc12", "< 6.00"),
    ("CNC1CCN(c2ccc(Nc3nccc(-c4ccn5ncc(C(C)C)c5c4)n3)nc2)C(=O)C1 (single isomer, unassigned) [Synthetic Example 205]", "> 8.00"),
    ("CCNC1CCN(c2ccc(Nc3nccc(-c4ccn5ncc(C(C)C)c5c4)n3)c(F)c2)C(=O)C1 (stereo not drawn)", "> 8.00"),
    ("CC(C)c1cnn2ccc(-c3nc(Nc4ccc(S(C)(=O)=O)cc4)ncc3F)cc12", "7.00 to 8.00"),
    ("CC(C)c1cnn2ccc(-c3nc(Nc4ccc(CN5CCOCC5=O)cn4)ncc3F)cc12", "6.00 to 7.00"),
    ("CC(C)c1cnn2cc(-c3ccnc(Nc4ccc(N5CCNCCC5=O)cn4)n3)ccc12", "7.00 to 8.00"),
    ("COc1nc(-c2nc(Nc3ccc(N4CCC(N(C)C)CC4=O)cn3)ncc2F)cc2c1nc(C)n2C(C)C (stereo not drawn) [Synthetic Example 62]", "< 6.00"),
    ("Cc1nc2c(F)nc(-c3ccnc(Nc4ccc(N5CCC(N(C)C)CC5=O)cc4)n3)cc2n1C(C)C (stereo not drawn)", "> 8.00"),
]
